# assaySystem: human 11β-HSD1 (Homo sapiens)
# Sequence (P28845 whole entry): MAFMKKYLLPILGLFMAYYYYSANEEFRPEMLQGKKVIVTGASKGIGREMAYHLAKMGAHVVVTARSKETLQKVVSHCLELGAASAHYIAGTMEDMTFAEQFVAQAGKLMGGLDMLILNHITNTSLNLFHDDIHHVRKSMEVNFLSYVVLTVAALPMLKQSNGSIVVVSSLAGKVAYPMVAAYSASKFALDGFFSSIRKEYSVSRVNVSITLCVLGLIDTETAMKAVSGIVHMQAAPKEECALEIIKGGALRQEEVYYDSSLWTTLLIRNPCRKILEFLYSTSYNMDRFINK
pIC50: −log10 of the molar value.
Entries annotated with measured pIC50

[
  {
    "compound": "CC[C@@H](c1ccc(Br)cc1)N1CC[C@](CC(C)(C)O)(c2ccccc2)CC1=O (single isomer, unassigned) [EXAMPLE 6 Isomer 1]",
    "pIC50": "> 7.00"
  },
  {
    "compound": "C[C@@H](c1ccc(-c2cc[nH]c(=O)c2)cc1)N1CC[C@](CC(C)(C)O)(c2ccccc2)CC1=O",
    "pIC50": "> 7.00"
  },
  {
    "compound": "CC[C@@H](c1ccc(Br)cc1)N1CC[C@@](CC(C)(C)O)(c2ccccc2)CC1=O (single isomer, unassigned) [EXAMPLE 6 Isomer 2]",
    "pIC50": "> 7.00"
  },
  {
    "compound": "C[C@@H](c1ccc(Br)cc1)N1CC[C@](CCO)(c2ccccc2)CC1=O (single isomer, unassigned) [EXAMPLE 2 Isomer 1]",
    "pIC50": "> 7.00"
  },
  {
    "compound": "C[C@@H](c1ccc(Br)cc1)N1CC[C@@](CCC(N)=O)(c2ccc(F)cc2)CC1=O (single isomer, unassigned) [EXAMPLE 4 Isomer 2]",
    "pIC50": "< 7.00"
  },
  {
    "compound": "C[C@@H](c1ccc(Br)cc1)N1CC[C@](CCC(N)=O)(c2ccc(F)cc2)CC1=O (single isomer, unassigned) [EXAMPLE 4 Isomer 1]",
    "pIC50": "> 7.00"
  }
]

Where these numbers come from: patent US8680281B2
